# target.entity: Gag-Pol polyprotein (Human immunodeficiency virus type 1 group M subtype B (isolate HXB2)) (UniProt P04585)
# measurement.protocol: RNase H inhibition, HIV 1 Gag Pol polyprotein, FRET biochemical assay, screening (AID 372)
# condition.notes: HIV-1 RT RNase H, FRET RNA/DNA substrate fluorescence; at 10 µM
Screen size: about 100,000 compounds; about 770 (0.77%) were called active. No stated cut-off is given here; in the data, active means inhibition above about 50%; inactive means the rest. What follows is part of a selection rich in actives, with near analogues and random picks from the rest.
Outcome codes: active, inactive

{"columns": ["compound", "class.label"],
 "data": [
  ["CC(NC(=O)CSCc1ccc(Cl)cc1)c1ccccc1 (configuration not stated)", "inactive"],
  ["CC(NC(=O)CSCc1ccccc1Cl)c1ccccc1 (configuration not stated)", "active"],
  ["CCOc1ccccc1NC(=O)CSCc1ccc(Cl)cc1Cl", "inactive"],
  ["O=C1NC(=S)S/C1=C\\c1cn(Cc2ccc(Cl)cc2)c2ccccc12", "inactive"],
  ["COc1ccc(-c2nc3cc(NC(=O)c4ccc(F)cc4)ccc3o2)cc1Cl", "inactive"],
  ["CCCOc1ccccc1/C=N/NC(N)=O", "inactive"],
  ["O=C(N/N=C/c1ccc(-c2ccc(Cl)cc2Cl)o1)c1ccccc1", "inactive"],
  ["CCCCOC(C)n1cc(Cl)c(=O)[nH]c1=O (configuration not stated)", "inactive"],
  ["CCOC(=O)C1=C(C)N=c2s/c(=C\\c3ccc(-c4ccc(C)c([N+](=O)[O-])c4)o3)c(=O)n2C1c1ccc2c(c1)OCO2 (configuration not stated)", "inactive"],
  ["CCc1cc(CC)c(Cc2c(CC)cc(CC)c(/C=N/NC(N)=O)c2CC)c(CC)c1/C=N/NC(N)=O", "active"],
  ["CCc1cc(CC)c(/C=N/O)c(CC)c1/C=N/O", "inactive"],
  ["COc1ccc2c(c1)-c1c(ssc1=S)C(C)(C)N2C(=O)c1ccccc1Br", "inactive"],
  ["COc1cc(OC)cc(C(=O)Nc2ccc3oc(-c4ccc(Cl)c(Cl)c4)nc3c2)c1", "active"],
  ["CCOC(=O)C1=C(C)N=c2s/c(=C\\c3ccc(-c4cc(C)c(C)c([N+](=O)[O-])c4)o3)c(=O)n2C1c1cc(OC)ccc1OC (configuration not stated)", "inactive"],
  ["CC(=O)N1c2ccccc2NC2=C(C(=O)CC(c3ccccc3)C2)C1c1cccnc1 (configuration not stated)", "inactive"],
  ["CCOC(=O)C1=C(C)N=c2s/c(=C\\c3ccc(-c4ccc(C)c([N+](=O)[O-])c4)o3)c(=O)n2C1c1ccc(OC)cc1 (configuration not stated)", "inactive"],
  ["O=C(Nc1ccc(-c2cc3ccccc3oc2=O)cc1)c1cccc(F)c1", "active"],
  ["COc1cc(OC)cc(C(=O)Nc2ccc3oc(-c4ccc(Br)cc4)nc3c2)c1", "inactive"],
  ["O=C(Nc1ccc2oc(-c3cccc(Cl)c3)nc2c1)c1cccc(F)c1", "active"],
  ["CC12CN3CC(C)(CN(C1)C3c1c[nH]c3ccccc13)C2=O (configuration not stated)", "inactive"],
  ["O=C(NC(=S)Nc1ccc(Cl)cn1)c1cccc(F)c1", "inactive"],
  ["O=C(Nc1ccc(-c2cc3ccccc3oc2=O)cc1)c1ccc(Cl)c(Cl)c1", "inactive"]
]}
